# TARGET SYSTEM: WEE1 (Homo sapiens, UniProt P30291)
# Construct: purchased Thermo Fisher PR7373A
# Sequence (P30291 whole entry): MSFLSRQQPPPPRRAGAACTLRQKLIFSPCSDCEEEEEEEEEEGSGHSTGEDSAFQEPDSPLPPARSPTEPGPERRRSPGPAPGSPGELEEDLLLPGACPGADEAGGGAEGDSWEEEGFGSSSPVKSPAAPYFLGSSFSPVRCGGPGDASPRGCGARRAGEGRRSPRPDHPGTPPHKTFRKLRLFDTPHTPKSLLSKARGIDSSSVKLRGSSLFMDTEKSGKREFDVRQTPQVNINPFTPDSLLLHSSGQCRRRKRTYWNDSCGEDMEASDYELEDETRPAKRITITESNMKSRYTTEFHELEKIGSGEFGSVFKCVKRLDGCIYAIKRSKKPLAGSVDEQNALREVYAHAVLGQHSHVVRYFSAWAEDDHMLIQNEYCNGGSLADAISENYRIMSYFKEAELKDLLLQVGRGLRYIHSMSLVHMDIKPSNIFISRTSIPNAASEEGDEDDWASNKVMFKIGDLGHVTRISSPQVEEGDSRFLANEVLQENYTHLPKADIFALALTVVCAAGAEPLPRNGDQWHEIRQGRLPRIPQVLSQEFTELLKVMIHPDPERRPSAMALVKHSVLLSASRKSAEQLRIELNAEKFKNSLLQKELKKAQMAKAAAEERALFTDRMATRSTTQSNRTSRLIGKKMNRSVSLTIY
# EXPERIMENTAL PROTOCOL: Selectivity versus WEE1 assay (ADP-Glo enzymatic assay)
# Assay type: biochemical
# CONDITION DESCRIPTION: fold difference in selectivity for PKMYT1 over WEE1; banded; ">N" = at least in this band but could be higher
PROPERTY MEASURED: PKMYT1 vs. WEE1 selectivity

Please review the entries below; each comes with its answer.
                                item_smiles            property_measured      reported_value
0  Cc1ccc(O)c(C)c1NC(=O)c1cnc(Nc2cc(C(=O)OC(C)(C)C)n(C)n2)s1  PKMYT1 vs. WEE1 selectivity  X (100-<1000 fold)
1  Cc1ccc(O)c(C)c1NC(=O)c1cnc(Nc2ccc(C(C)(C)C)cc2)s1  PKMYT1 vs. WEE1 selectivity  X (100-<1000 fold)
2  Cc1cc(Nc2ncc(C(=O)Nc3c(C)ccc(O)c3C)s2)nc(N2CCC(F)(F)CC2)n1  PKMYT1 vs. WEE1 selectivity  X (100-<1000 fold)
3    Cc1ccc(O)c(C)c1NC(=O)c1cnc(Nc2nccs2)s1  PKMYT1 vs. WEE1 selectivity  Y (1000-5000 fold)
4     Cc1ccc(O)c(C)c1NC(=O)c1cnc(NCC2CC2)s1  PKMYT1 vs. WEE1 selectivity  X (100-<1000 fold)

Form field, PKMYT1 vs. WEE1 selectivity with WEE1 (Homo sapiens, UniProt P30291), item Cc1ccc(O)c(C)c1NC(=O)c1cnc(Nc2ccn(CC(=O)N3CCC3)n2)s1 : Y (1000-5000 fold)

Form field, PKMYT1 vs. WEE1 selectivity with WEE1 (Homo sapiens, UniProt P30291), item Cc1cc(Nc2ncc(C(=O)Nc3c(C)ccc(O)c3C)s2)n(CC(C)C)n1 : Y (1000-5000 fold)

Form field, PKMYT1 vs. WEE1 selectivity with WEE1 (Homo sapiens, UniProt P30291), item Cc1ccc(O)c(C)c1NC(=O)c1cnc(Nc2ccn(CC(=O)N3C[C@H]4C[C@@H]3CN4)n2)s1 : X (100-<1000 fold)

Form field, PKMYT1 vs. WEE1 selectivity with WEE1 (Homo sapiens, UniProt P30291), item Cc1ccc(O)c(C)c1NC(=O)c1cnc(Nc2nc3c(s2)COCC3)s1 : X (100-<1000 fold)

Form field, PKMYT1 vs. WEE1 selectivity with WEE1 (Homo sapiens, UniProt P30291), item Cc1ccc(O)c(C)c1NC(=O)c1cnc(Nc2ccc3cc(Br)ccc3n2)s1 : X (100-<1000 fold)

Form field, PKMYT1 vs. WEE1 selectivity with WEE1 (Homo sapiens, UniProt P30291), item Cc1cn(-c2ccccn2)nc1Nc1ncc(C(=O)Nc2c(C)ccc(O)c2C)s1 : X (100-<1000 fold)

Form field, PKMYT1 vs. WEE1 selectivity with WEE1 (Homo sapiens, UniProt P30291), item Cc1ccc(O)c(C)c1NC(=O)c1cnc(Nc2ccn(CC(=O)N3CCC[C@@H](O)C3)n2)s1 : Y (1000-5000 fold)

====

# TARGET SYSTEM: WEE1 (Homo sapiens)
# Construct: purchased Thermo Fisher PR7373A
# EXPERIMENTAL PROTOCOL: Selectivity versus WEE1 assay (ADP-Glo enzymatic assay)
# Assay type: biochemical
# CONDITION DESCRIPTION: fold difference in selectivity for PKMYT1 over WEE1; banded; ">N" = at least in this band but could be higher
# Experimental: Selectivity versus WEE1 assay: Selectivity was established using the same format as outlined for PKMYT1. […] After 60 minutes the luminescence signal was read on a PHERAStar FS microplate reader (BMG Labtech). Data analysis: Data was captured and analysed within the Dotmatics Studies software module where dose response curves were generated and IC50 values determined. […]
PROPERTY MEASURED: PKMYT1 vs. WEE1 selectivity

Please review the entries below; each comes with its answer.
In [3]: df
Out[3]:
                                   molecule      reported_value
0  Cc1ccc(O)c(C)c1NC(=O)c1cnc(Nc2cc(C(=O)O)n(C)n2)s1 [BAA-118]  X (100-<1000 fold)
1  Cc1ccc(O)c(C)c1NC(=O)c1cnc(Nc2ccn(CC(=O)NC(C)C)n2)s1 [BAA-189]  Y (1000-5000 fold)
2  Cc1ccc(O)c(C)c1NC(=O)c1cnc(Nc2cc(C(F)(F)F)nc(OCC(F)(F)F)n2)s1 [BAA-318]  Y (1000-5000 fold)
3  Cc1ccc(O)c(C)c1NC(=O)c1cnc(Nc2ccn(CC(=O)N3C[C@@H](C)N(C(=O)OC(C)(C)C)[C@@H](C)C3)n2)s1 [BAA-156]  Y (1000-5000 fold)
4  Cc1cn(S(=O)(=O)C(C)C)nc1Nc1ncc(C(=O)Nc2c(C)ccc(O)c2C)s1 [BAA-268]  Y (1000-5000 fold)

Reported PKMYT1 vs. WEE1 selectivity of Cc1ccc(O)c(C)c1NC(=O)c1cnc(Nc2nn(-c3ccc(C(F)(F)F)nc3)cc2Cl)s1 [BAA-382] : X (100-<1000 fold)

Reported PKMYT1 vs. WEE1 selectivity of Cc1cc(Nc2ncc(C(=O)Nc3c(C)ccc(O)c3C)s2)nc(-c2ccc(F)cc2)n1 [BAA-307] : Y (1000-5000 fold)
